# targetOfAssay: D(3) dopamine receptor (Homo sapiens)
# Sequence (P35462 whole entry): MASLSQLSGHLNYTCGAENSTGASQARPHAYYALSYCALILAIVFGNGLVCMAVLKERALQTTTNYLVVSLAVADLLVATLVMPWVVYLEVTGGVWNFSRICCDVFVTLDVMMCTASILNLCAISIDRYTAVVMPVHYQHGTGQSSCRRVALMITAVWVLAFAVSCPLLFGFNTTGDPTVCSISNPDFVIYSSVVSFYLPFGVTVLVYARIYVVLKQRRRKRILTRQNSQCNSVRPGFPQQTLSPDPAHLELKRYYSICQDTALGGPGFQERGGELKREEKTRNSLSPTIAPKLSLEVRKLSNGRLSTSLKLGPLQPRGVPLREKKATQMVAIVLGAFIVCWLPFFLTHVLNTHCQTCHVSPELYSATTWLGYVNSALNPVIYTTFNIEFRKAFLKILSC
observationType: pKi
Give bare numbers, as −log10 of the molar value.

State its pKi for this molecule: `CCN(CC)CC.O=C1CC(=O)N(c2ccnc(-c3noc(=S)[nH]3)c2)c2ccc3ccccc3c2N1`
9.11

* * *

# targetOfAssay: P2X2/P2X3 heterotrimeric receptor (Homo sapiens) (UniProt Q9UBL9+P56373)
# experimentalProtocol: Antagonist activity at human P2X2/3R transfected in CHO-K1 cells at 30 uM preincubated for 30 mins followed by alpha,beta-meATP addition by fluorescence based assay relative to control
# Type: cell-based
# Design: scale not given: the % may be the effect or the level left
Give measured Activity for each item. Keep answers brief.
Numbers only, in %.

Determine its reported Activity: `O=C1CC(=O)N(c2cccc(-c3noc(=S)[nH]3)c2)c2cc(-c3ccccc3)c3ccccc3c2N1`
10

State its Activity for this molecule: `O=C1CC(=O)N(c2cc(-c3noc(=S)[nH]3)ccn2)c2ccc3ccccc3c2N1`
-6

Consider the molecule `O=C1CC(=O)N(c2cncc(-c3noc(=S)[nH]3)c2)c2ccc3ccccc3c2N1` . State its measured Activity.
25

Complete the entry with Activity for `NCc1ccc2ccc3c(c2c1)NC(=O)CC(=O)N3c1cccc(-c2noc(=S)[nH]2)c1`
0

# next molecule below
Kindly indicate its recorded Activity. Item: `CCc1cc2c(c3ccccc13)NC(=O)CC(=O)N2c1cccc(-c2noc(=S)[nH]2)c1`
10
